// provenance: ChEMBL document CHEMBL1201862

test system: DMS-114; test: NCI tumour cell line growth inhibition, 48 h
Active and inactive are the calls of the source. Cut-off read from the data, not from the text of the source: active = GI50 up to about 1.1 µM and inactive = higher.
Please respond with reported GI50 for every item in the list.

What reported GI50 corresponds to CC1CC2OC(=O)CC2C[C@@H]1O[Si](C)(C)C(C)(C)C (some centres undefined) on DMS-114?
28 µM (inactive)

What reported GI50 corresponds to O=S(=O)(O)c1ccc(/N=N/c2nc(C(F)(F)F)c(C(F)(F)F)[nH]2)cc1 on DMS-114?
16.8 µM (inactive)

What reported GI50 corresponds to CCCCCCCCCCCCCCCCCC(=O)NCC(COP(=O)(O)O)OCC (centres undefined) on DMS-114?
33.6 µM (inactive)

What reported GI50 corresponds to COc1ccc(/C=C/C(=O)c2sc(Nc3ccc([N+](=O)[O-])cc3)nc2C)cc1 on DMS-114?
31.3 µM (inactive)
